# test_method_notes: Steady state fluorescence spectra and quantum yield
# Format: physicochemical
# cond: in complex with biliverdin, UV/blue excitation
# Protocol: All experiments were performed with purified SFP samples (apo and holo forms) at pH 7.5 and room temperature. UV-Visible absorbance spectra of native and recombinant SFP were recorded from 800 to 200 nm with ultraspec 2100 pro spectrophotometer from Amersham Biosciences. CD spectra were measured on JASCO J-815 Spectropolarimeter. Steady state fluorescence, excitation, binding and photobleaching studies were monitored on Horiba Jobin Yvon Fluoromax-4 fluorimeter. […]
Each entry below carries its reported Ex/Em1, emission.
Respond with the figure and its unit, in that order.

Solved entries:
Wild-type SFP: Sandercyanin fluorescent protein from walleye Sander vitreus mucus, biliverdin-binding lipocalin tetramer; SEQ ID NO:1 (recombinant SEQ ID NO:31) (protein, listed as Sander vitreus, biliverdin chromophore) MNAIQVISLTLLSVLAAKAMFIKPGRCPKPAVQEDFDAARYLGVWYDIQRLPNKFQKGECATATYSLSPGVGFSVFNRERLANGTIKSVIGSAIAEDPCEPAKLQFFHENAAPVPYWVLSTDYDNYALVYSCINLGASHAAYASIVSRQPTLPEETIKKLQGTMSSFGVGVDTLLTTNQDAAYCSAMAQ; 675 nm
SFP-VP95insGG: L135E monoSFP extended with glycine residues at position 95, SEQ ID NO:6 (protein) MFIKPGRCPKPAVQEDFDAARYLGVWYDIQRLPNKFQKGECATATYSLSPGVGFSVFNRERLANGTIKSVIGSAIAEDPCEPAKLQFFHENAAPGGVPYWVLSTDYDNYALVYSCINSFEGASHAAYASIVSRQPTLPEETIKKLQGTMSSFGVGVDTLLTTNQDAAYCSAMNQ; 657 nm
SFP-L135E: monomeric SFP variant L135E, SEQ ID NO:3 (protein) FIKPGRCPKPAVQEDFDAARYLGVWYDIQRLPNKFQKGECATATYSLSPGVGFSVFNRERLANGTIKSVIGSAIAEDPCEPAKLQFFHENAAPVPYWVLSTDYDNYALVYSCINEGASHAAYASIVSRQPTLPEETIKKLQGTMSSFGVGVDTLLTTNQDAAYCSAMNQ; 682 nm

-- ask State the recorded Ex/Em1, emission for this entry: SFP-FH88insGG: L135E monoSFP extended with glycine residues at position 88, SEQ ID NO:5 (protein) MFIKPGRCPKPAVQEDFDAARYLGVWYDIQRLPNKFQKGECATATYSLSPGVGFSVFNRERLANGTIKSVIGSAIAEDPCEPAKLQFGGFHENAAPVPYWVLSTDYDNYALVYSCINEGASHAAYASIVSRQPTLPEETIKKLQGTMSSFGVGVDTLLTTNQDAAYCSAMNQ
-- reply 663 nm

-- ask State the recorded Ex/Em1, emission for this entry: SFP-A137E: monomeric SFP variant A137E, SEQ ID NO:4 (protein) FIKPGRCPKPAVQEDFDAARYLGVWYDIQRLPNKFQKGECATATYSLSPGVGFSVFNRERLANGTIKSVIGSAIAEDPCEPAKLQFFHENAAPVPYWVLSTDYDNYALVYSCINLGESHAAYASIVSRQPTLPEETIKKLQGTMSSFGVGVDTLLTTNQDAAYCSAMNQ
-- reply 663 nm

-- ask State the recorded Ex/Em1, emission for this entry: SFP-V71E: monomeric SFP variant V71E, SEQ ID NO:2 (protein) FIKPGRCPKPAVQEDFDAARYLGVWYDIQRLPNKFQKGECATATYSLSPGEGFSVFNRERLANGTIKSVIGSAIAEDPCEPAKLQFFHENAAPVPYWVLSTDYDNYALVYSCINLGASHAAYASIVSRQPTLPEETIKKLQGTMSSFGVGVDTLLTTNQDAAYCSAMNQ
-- reply 670 nm
